This collection of values is drawn from patent US8188268B2.

Assay: Dissolution test against cold water at 10° C.
Format: physicochemical
Details: 20 ml water 10° C., about 300 rpm; 0.5 g trehalose or 0.2 g maltose
Method: A dissolution test against cold water at 10° C. was carried out using the porous anhydrous crystalline trehalose prepared by treating at 70° C. for 60 min in Example 1, the porous anhydrous crystalline maltose prepared by the method in Example 3, and the porous hydrous crystalline maltose prepared by the method in Example 5, as samples. The results were compared with those of the controls, anhydrous crystalline trehalose, hydrous crystalline trehalose, and hydrous crystalline maltose. […]

{"COMPOUND": "OC[C@H]1O[C@H](O[C@H]2[C@H](O)[C@@H](O)C(O)O[C@@H]2CO)[C@H](O)[C@@H](O)[C@@H]1O (mixture of isomers) [Hydrous crystalline β-maltose (Control), maltose]", "Time required for dissolution, No. 5": "116 s"}
{"COMPOUND": "OC[C@H]1O[C@H](O[C@H]2[C@H](O)[C@@H](O)C(O)O[C@@H]2CO)[C@H](O)[C@@H](O)[C@@H]1O (mixture of isomers) [Anhydrous crystalline α-maltose (Control)] [reference compound]", "Time required for dissolution, No. 5": "36 s"}
{"COMPOUND": "OC[C@H]1O[C@H](O[C@H]2O[C@H](CO)[C@@H](O)[C@H](O)[C@H]2O)[C@H](O)[C@@H](O)[C@@H]1O [Anhydrous crystalline trehalose (Control)] [α-D-glucosyl α-D-glucoside, reference compound]", "Time required for dissolution, No. 5": "86 s"}
{"COMPOUND": "OC[C@H]1O[C@H](O[C@H]2O[C@H](CO)[C@@H](O)[C@H](O)[C@H]2O)[C@H](O)[C@@H](O)[C@@H]1O [Hydrous crystalline trehalose (Control), α-D-glucosyl α-D-glucoside]", "Time required for dissolution, No. 5": "123 s"}
